Cited source: patent US9255100B2

Measured IC50 accompanies every entry in the list below.
Target: N-terminally GST-tagged human full length recombinant Mps-1 kinase (Homo sapiens)
Construct: N-terminally GST-tagged human full length recombinant Mps-1 kinase; purchased Invitrogen, Karslruhe, Germany PV4071
Sequence (P33981 1-857): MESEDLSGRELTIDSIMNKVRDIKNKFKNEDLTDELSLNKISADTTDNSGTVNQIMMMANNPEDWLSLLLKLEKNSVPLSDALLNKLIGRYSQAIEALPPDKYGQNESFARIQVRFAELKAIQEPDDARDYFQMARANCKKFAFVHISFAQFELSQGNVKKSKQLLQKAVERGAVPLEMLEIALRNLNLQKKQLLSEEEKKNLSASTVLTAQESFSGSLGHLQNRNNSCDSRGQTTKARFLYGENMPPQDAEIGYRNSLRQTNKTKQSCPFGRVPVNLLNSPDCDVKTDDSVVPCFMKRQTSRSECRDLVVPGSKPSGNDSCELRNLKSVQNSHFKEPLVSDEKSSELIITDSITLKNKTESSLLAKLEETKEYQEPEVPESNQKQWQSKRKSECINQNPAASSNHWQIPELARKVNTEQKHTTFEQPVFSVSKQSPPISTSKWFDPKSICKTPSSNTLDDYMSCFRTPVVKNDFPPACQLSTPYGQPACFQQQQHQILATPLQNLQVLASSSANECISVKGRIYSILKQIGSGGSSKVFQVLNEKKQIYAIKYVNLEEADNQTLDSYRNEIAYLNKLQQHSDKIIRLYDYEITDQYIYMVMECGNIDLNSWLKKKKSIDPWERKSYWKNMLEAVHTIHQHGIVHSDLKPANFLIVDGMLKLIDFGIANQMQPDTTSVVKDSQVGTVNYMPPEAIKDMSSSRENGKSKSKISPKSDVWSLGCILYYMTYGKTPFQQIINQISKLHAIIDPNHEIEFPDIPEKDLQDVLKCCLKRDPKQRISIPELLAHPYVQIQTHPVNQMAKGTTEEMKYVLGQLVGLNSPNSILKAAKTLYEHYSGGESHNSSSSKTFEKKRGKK
Test: Mps-1 kinase assay (TR-FRET)
Assay type: biochemical
Settings: Mps1 IC50 [nM], 10 μM ATP, 1 μM peptide substrate, 60 min at 22° C.
Entry rule: numbers only, all in nM.

# annotated cases, reported IC50 shown
>  <compound>
Cc1ccc(F)cc1Oc1cc(NCC(C)(C)O)c2ncc(-c3ccc(C(=O)NC4CC4)c(C)c3)n2n1 [Example 391]

>  <measured.value>
0.1

$$$$
>  <compound>
COc1cccc(Oc2cc(NCCC(F)(F)F)c3ncc(-c4ccc(C(=O)NC5CC5)c(C)c4)n3n2)c1 [Example 225]

>  <measured.value>
0.2

$$$$
>  <compound>
CC(C)CNc1cc(-c2ccccc2O)nn2c(-c3ccc(C(=O)NC4CC4)cc3)cnc12 [Example 139]

>  <measured.value>
3.7

$$$$

Proceed to the following item.
Please respond with reported IC50 (system N-terminally GST-tagged human full length recombinant Mps-1 kinase (Homo sapiens)) for CC(C)(O)CNc1cc(-c2ccncc2)nn2c(-c3ccc(C(=S)NC4CC4)cc3)cnc12 [Example 47] .
2
